Where do these numbers come from? They come from PubChem BioAssay AID2060886.

Each record here notes measured viability, T/C.
Test system: 653999-131-R-J2-PDC complex spheroids, growth inhibition
Test: Anticancer human tumor 653999-131-R-J2-PDC patient-derived lung adenocarcinoma cell line growth inhibition [RAS]
Details: second compound 1 µM; first compound 0.316 µM; stronger effect = lower value
Expressed in %, but write only the number.

Check out these entries, answers already filled in.
NC1c2ccccc2OC12CCN(c1cnc3c(N4CCCc5ncccc54)n[nH]c3n1)CC2 (stereo not given) + C=CC(=O)N1CCN(c2nc(OCC3CCCN3C)nc3c(F)c(-c4nc(N)cc(C)c4C(F)(F)F)c(Cl)cc23)C(C)C1 = 87.9
C=CC(=O)Nc1cc(Nc2nccc(-c3cn(C)c4ccccc34)n2)c(OC)cc1N(C)CCN(C)C + C#Cc1c(F)ccc2cc(O)cc(-c3ncc4c(N5CC6CCC(C5)N6)nc(OCC56CCCN5CC(F)C6)nc4c3F)c12 = 36.1
C[C@@H](NC(=O)c1ncnc(N)c1Cl)c1ncc(C(=O)Nc2cc(C(F)(F)F)c(Cl)cn2)s1 + C=CC(=O)N1CCN(c2nc(OCC3CCCN3C)nc3c(F)c(-c4nc(N)cc(C)c4C(F)(F)F)c(Cl)cc23)C(C)C1 = 104
O=C(c1ccc(F)c(F)c1Nc1ccc(I)cc1F)N1CC(O)([C@@H]2CCCCN2)C1 + C=CC(=O)N1CCN(c2nc(OCC3CCCN3C)nc3c(F)c(-c4nc(N)cc(C)c4C(F)(F)F)c(Cl)cc23)C(C)C1 = 25.8

Okay, now this compound:
Ask | Test system 653999-131-R-J2-PDC complex spheroids, growth inhibition; read-out viability, T/C; what value for CC1(O)CCCC1n1c(=O)c(C(F)F)cc2cnc(NC3CCN(S(C)(=O)=O)CC3)nc21 (stereo not given) + C=CC(=O)N1CCN(c2nc(OCC3CCCN3C)nc3c(F)c(-c4nc(N)cc(C)c4C(F)(F)F)c(Cl)cc23)C(C)C1 ?
Reply | 71

###

System: 653999-131-R-J2-PDC complex spheroids, growth inhibition
Assay: Anticancer human tumor 653999-131-R-J2-PDC cell line growth inhibition [RAS];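 further: spheroids exposed to the agents for seven days before the readout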
Conditions: compound 10 µM; stronger effect = lower value
Excerpt: RAS pathway inhibitors in Combinations in Complex Spheroids A high-throughput screen of multi-cell type tumor spheroids was designed to identify active combinations of RAS pathway inhibitors and targeted small molecules. Complex spheroids include a stromal component modeled by human endothelial cells (HUVEC) and fibroblasts modeled by human mesenchymal stem cells (MSCs). […] Compounds. […] If the clinical Cmax for an agent had not been determined, the highest concentration tested was 10 microM. […]
REPORTED_METRIC: viability, T/C

Examples from the recorded data:
CCC(CC)c1cc(NC2CCC(N)C2)n2nccc2n1 (configuration not stated) = 19.9% [middle of 4 runs]
C#Cc1c(F)ccc2cc(O)cc(-c3ncc4c(N5CC6CCC(C5)N6)nc(OCC56CCCN5CC(F)C6)nc4c3F)c12 (configuration not stated) = 31.8% [middle of 8 runs]
CC1(O)CCCC1n1c(=O)c(C(F)F)cc2cnc(NC3CCN(S(C)(=O)=O)CC3)nc21 (configuration not stated) = 35.3% [middle of 4 runs]
NC1c2ccccc2OC12CCN(c1cnc3c(N4CCCc5ncccc54)n[nH]c3n1)CC2 (configuration not stated) = 78.4% [middle of 4 runs]

Ask | viability, T/C lookup needed for CC(C)NCC(C(=O)N1CCN(c2ncnc3c2C(C)CC3O)CC1)c1ccc(Cl)cc1 (configuration not stated) , thanks.
Reply | 34.9% [middle of 4 runs]

Ask | Please look up its viability, T/C: CC(=O)OC12COC1CC(O)C1(C)C(=O)C(O)C3=C(C)C(OC(=O)C(O)C(NC(=O)OC(C)(C)C)c4ccccc4)CC(O)(C(OC(=O)c4ccccc4)C21)C3(C)C (configuration not stated)
Reply | 67.2% [middle of 4 runs]

Ask | Returns the measured viability, T/C for the input molecule. Input: CC(Nc1ccc2c(c1)OCCn1cc(N3C(=O)OCC3C(F)F)nc1-2)C(N)=O (configuration not stated)
Reply | 25.5% [middle of 4 runs]
